Hey, just so you know, these numbers are from ChEMBL document CHEMBL1201862.

System: HCC 2998
Experiment: NCI tumour cell line growth inhibition, 48 h
Calls of active or inactive are those of the source. Cut-off read from the data, not from the text of the source: active = GI50 up to about 1.1 µM and inactive = higher.
Give GI50 for every item shown.

Sample answers from the record:
>  <compound>
COc1nn(Cc2ccccn2)c2ccc([N+](=O)[O-])cc12

>  <quantity_name>
GI50

>  <endpoint_value>
84.7 µM (inactive)

$$$$
>  <compound>
Cn1c2c(c3ccccc31)CC(=O)N1CCCC(C1)CC21OCCO1 (stereo not given)

>  <quantity_name>
GI50

>  <endpoint_value>
> 100 µM (inactive)

$$$$
>  <compound>
CN(CCCNC(=O)c1nn(-c2ccccc2)c2c1ccc1ccccc12)CCCNC(=O)c1nn(-c2ccccc2)c2c1ccc1ccccc12

>  <quantity_name>
GI50

>  <endpoint_value>
1.31 µM (inactive)

$$$$

Each compound below has a reported value. Please supply its GI50.
1. O=C1c2ccccc2C(=O)N1CCn1nc(-c2ccccc2)cc(-c2ccccc2)c1=O
2. COc1ccc(OC)c2sc(N3C(=O)/C(=C/c4cccc([N+](=O)[O-])c4)N=C3c3ccccc3)nc12
3. CC(=O)OC1COC(n2c(=S)n(-c3ccccc3)c(=O)c3cc(Br)ccc32)C(OC(C)=O)C1OC(C)=O (stereo not given)
4. CN(NC1OC(CO)C(O)C(O)C1O)c1ccccc1 (stereo not given)
5. CC1=NN(c2nc(N)nc(CSCc3nc(N)nc(N(C)C)n3)n2)C(C)(C)C1
6. O=C1C=CC(O)(C#CCO)C=C1

["67.8 µM (inactive)", "45.5 µM (inactive)", "> 100 µM (inactive)", "43.4 µM (inactive)", "> 100 µM (inactive)", "17.5 µM (inactive)"]

C[N+](C)(C)CC1CCc2ccccc2C1=O (stereo not given) has a reported GI50 of 15.3 µM (inactive)
